Property: Na; scope: individual compounds
Organism: Rattus norvegicus
procedure details: Open TG-GATES - Regimen: Daily Repeat
Type: toxicity, organism-based, Sprague-Dawley
Design: regimen Daily Repeat, gender Male, age 6 weeks
test parameters: in vivo, po, 300 mg/kg, […], tissue Plasma, route gavage, dose level Middle, time 14 day

compound: CC(=O)[C@@]1(O)CC[C@H]2[C@@H]3C=C(Cl)C4=CC(=O)CC[C@]4(C)[C@H]3CC[C@@]21C
Na / meq/L: 141.4
--
compound: CCCCNC(=O)NS(=O)(=O)c1ccc(C)cc1 [TOLBUTAMIDE]
Na / meq/L: 142.2
--
compound: CC(S)C(=O)NCC(=O)O (centres undefined)
Na / meq/L: 140.8
--
compound: O=C(O)c1ccccc1Nc1ccccc1
Na / meq/L: 144.2

----------
Quick list: Bas per entry.
Organism: Rattus norvegicus
procedure details: Open TG-GATES - Regimen: Daily Repeat
Assay type: toxicity, organism-based, Sprague-Dawley
Design: regimen Daily Repeat, gender Male, age 6 weeks
test parameters: in vivo, po, 0 mg/kg, […], tissue Blood, route gavage, dose level Control, time 28 day

molecule: COc1ccc([C@@H]2Sc3ccccc3N(CCN(C)C)C(=O)[C@@H]2OC(C)=O)cc1
Bas, %: 0.4
//
molecule: CN(C/C=C/C#CC(C)(C)C)Cc1cccc2ccccc12
Bas, %: 1
//
molecule: CC(=O)[C@@]1(O)CC[C@H]2[C@@H]3C=C(Cl)C4=CC(=O)CC[C@]4(C)[C@H]3CC[C@@]21C
Bas, %: 0
//
molecule: CCCCNC(=O)NS(=O)(=O)c1ccc(C)cc1 [TOLBUTAMIDE]
Bas, %: 0.2
//
molecule: CC(S)C(=O)NCC(=O)O (stereo not drawn)
Bas, %: 0
//
molecule: CCN(CC)C(=S)SSC(=S)N(CC)CC
Bas, %: 0
//
molecule: CCCCC1C(=O)N(c2ccccc2)N(c2ccccc2)C1=O
Bas, %: 0
//
molecule: CN(CCOc1ccc(CC2SC(=O)NC2=O)cc1)c1ccccn1.O=C(O)/C=C\C(=O)O (stereo not drawn) [ROSIGLITAZONE MALEATE]
Bas, %: 0
//
molecule: NS(=O)(=O)c1cc(C(=O)O)c(NCc2ccco2)cc1Cl [FUROSEMIDE]
Bas, %: 0.6
//
molecule: O=C(O)c1ccccc1Nc1ccccc1
Bas, %: 0.2
//
molecule: CCO
Bas, %: 0
//
molecule: Nc1ccc(Cc2ccc(N)cc2)cc1
Bas, %: 0.4
//
molecule: O=c1ccc2ccccc2o1
Bas, %: 0.2

----------
In this section, each of the molecules is paired with its reported TP.
Organism: Rattus norvegicus
procedure details: Open TG-GATES - Regimen: Daily Repeat
Format: toxicity, organism-based, Sprague-Dawley
Set-up: regimen Daily Repeat, gender Male, age 6 weeks
test parameters: in vivo, po, 100 mg/kg, […], tissue Plasma, route gavage, dose level Low, time 14 day
measurement type: TP (g/dL)

molecule: CCCCNC(=O)NS(=O)(=O)c1ccc(C)cc1 [TOLBUTAMIDE]
reported value: 5.7
--
molecule: CC(=O)[C@@]1(O)CC[C@H]2[C@@H]3C=C(Cl)C4=CC(=O)CC[C@]4(C)[C@H]3CC[C@@]21C [CHLORMADINONE]
reported value: 5.7
--
molecule: O=C(O)c1ccccc1Nc1ccccc1 [FENAMIC ACID]
reported value: 5.8
--
molecule: CC(S)C(=O)NCC(=O)O (centres undefined) [TIOPRONIN]
reported value: 5.7

----------
Organism: Rattus norvegicus
procedure details: Open TG-GATES - Regimen: Single
Format: toxicity, organism-based, Sprague-Dawley
Parameters: regimen Single, gender Male, age 6 weeks
test parameters: in vivo, po, 0 mg/kg, 3 h, tissue Blood, route gavage, dose level Control
measurement type: MCH (pg)

compound: COc1cc2ncnc(Nc3ccc(F)c(Cl)c3)c2cc1OCCCN1CCOCC1
measurement type: MCH
units: pg
reported value: 21.5

compound: CCO
measurement type: MCH
units: pg
reported value: 21.5

compound: CC(=O)[C@@]1(O)CC[C@H]2[C@@H]3C=C(Cl)C4=CC(=O)CC[C@]4(C)[C@H]3CC[C@@]21C
measurement type: MCH
units: pg
reported value: 20.4

compound: O=c1ccc2ccccc2o1
measurement type: MCH
units: pg
reported value: 22.1

compound: CC(S)C(=O)NCC(=O)O (stereo not drawn)
measurement type: MCH
units: pg
reported value: 20.2

compound: O=C(O)c1ccccc1Nc1ccccc1
measurement type: MCH
units: pg
reported value: 20.8

compound: CN(C)CCCN1c2ccccc2Sc2ccc(Cl)cc21
measurement type: MCH
units: pg
reported value: 21.8

compound: Nc1ccc(Cc2ccc(N)cc2)cc1
measurement type: MCH
units: pg
reported value: 21.8

compound: CCCCNC(=O)NS(=O)(=O)c1ccc(C)cc1 [TOLBUTAMIDE]
measurement type: MCH
units: pg
reported value: 21

compound: CCN(CC)C(=S)SSC(=S)N(CC)CC
measurement type: MCH
units: pg
reported value: 20.6

compound: NS(=O)(=O)c1cc(C(=O)O)c(NCc2ccco2)cc1Cl [FUROSEMIDE]
measurement type: MCH
units: pg
reported value: 21.5

compound: CN(CCOc1ccc(CC2SC(=O)NC2=O)cc1)c1ccccn1.O=C(O)/C=C\C(=O)O (stereo not drawn) [ROSIGLITAZONE MALEATE]
measurement type: MCH
units: pg
reported value: 21.4

compound: CN(C/C=C/C#CC(C)(C)C)Cc1cccc2ccccc12
measurement type: MCH
units: pg
reported value: 21.8

----------
Species on record: Rattus norvegicus
procedure details: Open TG-GATES - Regimen: Daily Repeat
Assay type: toxicity, organism-based, Sprague-Dawley
Parameters: regimen Daily Repeat, gender Male, age 6 weeks
test parameters: in vivo, po, 0 mg/kg, […], tissue Plasma, route gavage, dose level Control, time 14 day
The compounds listed here are annotated with their AST.
measurement type: AST (IU/L)

compound: CN(C/C=C/C#CC(C)(C)C)Cc1cccc2ccccc12
units: IU/L
reported value: 67.2
//
compound: CC(S)C(=O)NCC(=O)O (stereo not drawn)
units: IU/L
reported value: 63.4
//
compound: CCO
units: IU/L
reported value: 61.8

----------
Species: Rattus norvegicus
procedure details: Open TG-GATES - Regimen: Daily Repeat
Assay type: toxicity, organism-based, Sprague-Dawley
Parameters: regimen Daily Repeat, gender Male, age 6 weeks
test parameters: in vivo, po, 1000 mg/kg, […], tissue Blood, route gavage, dose level High, time 14 day
As shown below, each of these compounds has a reported Neu value.

compound: CC(=O)[C@@]1(O)CC[C@H]2[C@@H]3C=C(Cl)C4=CC(=O)CC[C@]4(C)[C@H]3CC[C@@]21C [CHLORMADINONE]
Neu: 14.4%
//
compound: CCCCNC(=O)NS(=O)(=O)c1ccc(C)cc1 [TOLBUTAMIDE]
Neu: 13.8%
//
compound: CC(S)C(=O)NCC(=O)O (centres undefined) [TIOPRONIN]
Neu: 14.4%
//
compound: O=C(O)c1ccccc1Nc1ccccc1 [FENAMIC ACID]
Neu: 41.7%

----------
Consider the following compounds and their measured Cl readings.
Species on record: Rattus norvegicus
procedure details: Open TG-GATES - Regimen: Daily Repeat
Format: toxicity, organism-based, Sprague-Dawley
Design: regimen Daily Repeat, gender Male, age 6 weeks
test parameters: in vivo, po, 300 mg/kg, […], tissue Plasma, route gavage, dose level Middle, time 7 day
measurement type: Cl

compound: O=C(O)c1ccccc1Nc1ccccc1
reported value: 103.8 meq/L

compound: CC(S)C(=O)NCC(=O)O (centres undefined)
reported value: 106.6 meq/L

compound: CC(=O)[C@@]1(O)CC[C@H]2[C@@H]3C=C(Cl)C4=CC(=O)CC[C@]4(C)[C@H]3CC[C@@]21C
reported value: 105.2 meq/L

compound: CCCCNC(=O)NS(=O)(=O)c1ccc(C)cc1 [TOLBUTAMIDE]
reported value: 103.8 meq/L

----------
Below is a list of entries, each paired with its recorded RALB value.
Species on record: Rattus norvegicus
procedure details: Open TG-GATES - Regimen: Daily Repeat
Assay type: toxicity, organism-based, Sprague-Dawley
Parameters: regimen Daily Repeat, gender Male, age 6 weeks
test parameters: in vivo, po, 1000 mg/kg, 72 h, tissue Plasma, route gavage, dose level High, time 3 day

compound: O=C(O)c1ccccc1Nc1ccccc1 [FENAMIC ACID]
units: g/dL
RALB: 2.5

compound: CC(S)C(=O)NCC(=O)O (centres undefined) [TIOPRONIN]
units: g/dL
RALB: 2.9

compound: CC(=O)[C@@]1(O)CC[C@H]2[C@@H]3C=C(Cl)C4=CC(=O)CC[C@]4(C)[C@H]3CC[C@@]21C [CHLORMADINONE]
units: g/dL
RALB: 3.3

compound: CCCCNC(=O)NS(=O)(=O)c1ccc(C)cc1 [TOLBUTAMIDE]
units: g/dL
RALB: 2.6
